Taken from patent US10918648B2.

Test system: MCF-7 breast cancer cells
Experiment: MCF-7 breast cancer cell proliferation (BrdU ELISA) in presence of estradiol-17β
Type: cell-based, human
Conditions: Homo sapiens, MCF7; 72 hrs in the presence of 1 nM estradiol-17β, BrdU ELISA; read-out: IC50 for inhibition of cell proliferation, MCF-7
Description: In experiments to assess potential proliferative effects of novel estrogen receptor ligands, human breast cancer cells were grown in phenol red-free, estrogen-free media with 1% dextran-coated charcoal-treated (DCC)-fetal bovine serum (FBS) for 48 hrs (15,44), then treated with either 1 μM or 50 μM doses of estrogen receptor antagonists in the presence of 1 nM estradiol-17β. […] After 72 hr, proliferation was assessed using the BrdU Cell proliferation ELISA (Roche). […]
pIC50: −log10 of the molar value.

COMPOUND: C[C@]12C[C@H](Oc3ccc(N)cc3)[C@@H]3c4ccc(O)cc4CC[C@H]3[C@@H]1CC[C@@H]2O
pIC50: 5.67

COMPOUND: C[C@]12C[C@H](Oc3ccc(N)c(C(F)(F)F)c3)[C@@H]3c4ccc(O)cc4CC[C@H]3[C@@H]1CC[C@@H]2O
pIC50: 6.96

COMPOUND: C[C@]12C[C@H](Oc3ccc(NCCN4CCOCC4)cc3)[C@@H]3c4ccc(O)cc4CC[C@H]3[C@@H]1CC[C@@H]2O
pIC50: 6.44

COMPOUND: C[C@]12C[C@H](Oc3ccc(NC(=O)CN4CCOCC4)cc3)[C@@H]3c4ccc(O)cc4CC[C@H]3[C@@H]1CC[C@@H]2O
pIC50: 6.13

COMPOUND: C[C@]12C[C@H](Oc3ccc(NC(=O)CCCN4CCCCC4)c(C(F)(F)F)c3)[C@@H]3c4ccc(O)cc4CC[C@H]3[C@@H]1CC[C@@H]2O
pIC50: 6.49

COMPOUND: C[C@]12CC[C@@H]3c4ccc(O)cc4C[C@@H](CCCCCCCCC[S+]([O-])CCCC(F)(F)C(F)(F)F)[C@H]3[C@@H]1CC[C@@H]2O (stereo partly shown) [FULVEST, fulvestrant, reference compound]
pIC50: 5.95

COMPOUND: C[C@]12C[C@H](Oc3ccc(NC(=O)CCCCN4CCCCC4)c(F)c3)[C@@H]3c4ccc(O)cc4CC[C@H]3[C@@H]1CC[C@@H]2O
pIC50: 6.49

====

Overview of reported pIC50 across a group of compounds:
System: A549 NSCLC cells
Assay: NSCLC cell proliferation in vitro (MTS assay)
Type: cell-based, human
Settings: Homo sapiens, A549; SERD alone, 72 hours, estrogen-depleted phenol red-free medium with 5% DCC-FBS, MTS assay; read-out: IC50 for inhibition of NSCLC cell proliferation, A549
pIC50: −log10 of the molar value.

STRUCTURE NOTATION: C[C@]12C[C@H](Oc3ccc(NC(=O)CCCN4CCCCC4)c(C(F)(F)F)c3)[C@@H]3c4ccc(O)cc4CC[C@H]3[C@@H]1CC[C@@H]2O
TEST SYSTEM: A549 NSCLC cells
pIC50: 5.85
--
STRUCTURE NOTATION: C[C@]12C[C@H](Oc3ccc(NC(=O)CCCCN4CCOCC4)c(C(F)(F)F)c3)[C@@H]3c4ccc(O)cc4CC[C@H]3[C@@H]1CC[C@@H]2O
TEST SYSTEM: A549 NSCLC cells
pIC50: 5.40
--
STRUCTURE NOTATION: CN(C)CCCC(=O)Nc1ccc(O[C@H]2C[C@]3(C)[C@@H](O)CC[C@H]3[C@@H]3CCc4cc(O)ccc4[C@H]32)cc1C(F)(F)F
TEST SYSTEM: A549 NSCLC cells
pIC50: 5.69
--
STRUCTURE NOTATION: C[C@]12C[C@H](Oc3ccc(NCCN4CCOCC4)cc3)[C@@H]3c4ccc(O)cc4CC[C@H]3[C@@H]1CC[C@@H]2O
TEST SYSTEM: A549 NSCLC cells
pIC50: 5.90
--
STRUCTURE NOTATION: C[C@]12C[C@H](Oc3ccc(NC(=O)CN4CCOCC4)cc3)[C@@H]3c4ccc(O)cc4CC[C@H]3[C@@H]1CC[C@@H]2O
TEST SYSTEM: A549 NSCLC cells
pIC50: 5.70
--
STRUCTURE NOTATION: C[C@]12C[C@H](Oc3ccc(NC(=O)CCCCN4CCCCC4)c(F)c3)[C@@H]3c4ccc(O)cc4CC[C@H]3[C@@H]1CC[C@@H]2O
TEST SYSTEM: A549 NSCLC cells
pIC50: 6.30

====

Test system: H1975 NSCLC cells
Experiment: NSCLC cell proliferation in vitro (MTS assay)
Type: cell-based, human
Conditions: in the presence of 1 μM palbociclib, 72 hours, 5% DCC-FBS, read-out: IC50 of SERD for inhibition of NSCLC cell proliferation, H1975

MOLECULE: C[C@]12C[C@H](Oc3ccc(N)c(C(F)(F)F)c3)[C@@H]3c4ccc(O)cc4CC[C@H]3[C@@H]1CC[C@@H]2O [JD128]
UNITS LABEL: µM
IC50: 12.4

MOLECULE: C[C@]12C[C@H](Oc3ccc(NC(=O)CN4CCOCC4)cc3)[C@@H]3c4ccc(O)cc4CC[C@H]3[C@@H]1CC[C@@H]2O [JD103]
UNITS LABEL: µM
IC50: 4.55

MOLECULE: C[C@]12C[C@H](Oc3ccc(N)cc3)[C@@H]3c4ccc(O)cc4CC[C@H]3[C@@H]1CC[C@@H]2O [JD105]
UNITS LABEL: µM
IC50: 4.78

MOLECULE: C[C@]12C[C@H](Oc3ccc(NC(=O)CCCCN4CCCCC4)c(F)c3)[C@@H]3c4ccc(O)cc4CC[C@H]3[C@@H]1CC[C@@H]2O [JD140]
UNITS LABEL: µM
IC50: 17.1

====

Measured pIC50 values are reported for all entries that follow.
Tested on: A549 NSCLC cells
Assay: NSCLC cell proliferation in vitro (MTS assay)
Type: cell-based, human
Settings: Homo sapiens, A549; SERD alone, 72 hours, estrogen-depleted phenol red-free medium with 5% DCC-FBS, MTS assay; read-out: IC50 for inhibition of NSCLC cell proliferation, A549
pIC50: −log10 of the molar value.

COMPOUND: C[C@]12CC[C@@H]3c4ccc(O)cc4C[C@@H](CCCCCCCCC[S+]([O-])CCCC(F)(F)C(F)(F)F)[C@H]3[C@@H]1CC[C@@H]2O (stereo partly drawn) [FULVEST, fulvestrant, reference compound]
pIC50: 5.38
//
COMPOUND: C[C@]12C[C@H](Oc3ccc(NC(=O)CCCCN4CCCCC4)c(C(F)(F)F)c3)[C@@H]3c4ccc(O)cc4CC[C@H]3[C@@H]1CC[C@@H]2O
pIC50: 5.80
//
COMPOUND: C[C@]12C[C@H](Oc3ccc(N)c(C(F)(F)F)c3)[C@@H]3c4ccc(O)cc4CC[C@H]3[C@@H]1CC[C@@H]2O
pIC50: 5.96

====

Listed next: entries and their corresponding IC50.
Tested on: H2122 NSCLC cells
Assay: NSCLC cell proliferation in vitro (MTS assay)
Type: cell-based, human
Details: in the presence of 1 μM abemaciclib, 72 hours, 5% DCC-FBS, read-out: IC50 of SERD for inhibition of NSCLC cell proliferation, H2122
Description: Cell culture: Human breast and non-small cell lung cancer cells (MCF7, ZR75-1, MDAMB231, A549, H23, H1975, […]) were from ATCC. MCF7-HER2 were a kind gift of Dr. Dennis Slamon (23). […] Cell proliferation assays: breast and lung tumor cells (between […]) were plated in 96 well plates using their respective medium with 10% FBS. […] For the MTS, the absorbance of the formazan product was measured at 490 nanometer using the iMARK microplate reader from BIORAD. […]

COMPOUND: C[C@]12C[C@H](Oc3ccc(N)cc3)[C@@H]3c4ccc(O)cc4CC[C@H]3[C@@H]1CC[C@@H]2O [JD105]
IC50 (nM): 1480
--
COMPOUND: C[C@]12C[C@H](Oc3ccc(NC(=O)CCCCN4CCCCC4)c(F)c3)[C@@H]3c4ccc(O)cc4CC[C@H]3[C@@H]1CC[C@@H]2O [JD140]
IC50 (nM): 30
--
COMPOUND: C[C@]12C[C@H](Oc3ccc(NC(=O)CN4CCOCC4)cc3)[C@@H]3c4ccc(O)cc4CC[C@H]3[C@@H]1CC[C@@H]2O [JD103]
IC50 (nM): 740
--
COMPOUND: C[C@]12C[C@H](Oc3ccc(N)c(C(F)(F)F)c3)[C@@H]3c4ccc(O)cc4CC[C@H]3[C@@H]1CC[C@@H]2O [JD128]
IC50 (nM): 230

====

System: H1975 NSCLC cells
Assay: NSCLC cell proliferation in vitro (MTS assay)
Format: cell-based, human
Conditions: Homo sapiens, NCI-H1975, CDK 4/6 inhibitor without SERD, 72 hours, 5% DCC-FBS, read-out: IC50 for inhibition of NSCLC cell proliferation, H1975
pIC50: −log10 of the molar value.

COMPOUND: CC(=O)c1c(C)c2cnc(Nc3ccc(N4CCNCC4)cn3)nc2n(C2CCCC2)c1=O [Palbociclib, palbociclib, reference compound]
TEST SYSTEM: H1975 NSCLC cells
pIC50: 5.93
--
COMPOUND: CCN1CCN(Cc2ccc(Nc3ncc(F)c(-c4cc(F)c5nc(C)n(C(C)C)c5c4)n3)nc2)CC1 [Abemaciclib, abemaciclib, reference compound]
TEST SYSTEM: H1975 NSCLC cells
pIC50: 6.08
